Sourced from the supplement of paper PMC8975748

tested on: Saccharomyces cerevisiae BY4741 SeMeCo community; assay: z-score of subpopulation abundance vs DMSO median, subpopulation auxotrophic for HM; higher = larger share of this subpopulation than in DMSO controls; conditions: 10 µM; 24 h; SM minimal medium; subpopulation (auxotrophy): HM
Counter-ions that a name gives are not always drawn.
METRIC NAME: z-score of subpopulation abundance

>  <COMPOUND>
C[N+](C)(C)CCOC(=O)CCC(=O)OCC[N+](C)(C)C [Succinylcholine Chloride Dihydrate]

>  <TESTED SYSTEM>
Saccharomyces cerevisiae BY4741 SeMeCo community

>  <READOUT NUMBER>
0.1

$$$$
>  <COMPOUND>
CCCCCCCCCC(=O)N[C@@H](Cc1c[nH]c2ccccc12)C(=O)N[C@H](CC(N)=O)C(=O)N[C@@H](CC(=O)O)C(=O)N[C@@H]1C(=O)NCC(=O)N[C@@H](CCCN)C(=O)N[C@@H](CC(=O)O)C(=O)N[C@H](C)C(=O)N[C@@H](CC(=O)O)C(=O)NCC(=O)N[C@H](CO)C(=O)N[C@@H]([C@H](C)CC(=O)O)C(=O)N[C@@H](CC(=O)c2ccccc2N)C(=O)O[C@@H]1C

>  <TESTED SYSTEM>
Saccharomyces cerevisiae BY4741 SeMeCo community

>  <READOUT NUMBER>
1.93

$$$$
>  <COMPOUND>
CC[C@@H]1C(=O)OC[C@@H]1Cc1cncn1C [Pilocarpine HCl]

>  <TESTED SYSTEM>
Saccharomyces cerevisiae BY4741 SeMeCo community

>  <READOUT NUMBER>
0.01

$$$$
>  <COMPOUND>
CCN1CCC[C@H]1CNC(=O)c1cc(S(N)(=O)=O)ccc1OC [Levosulpiride]

>  <TESTED SYSTEM>
Saccharomyces cerevisiae BY4741 SeMeCo community

>  <READOUT NUMBER>
-0.96

$$$$
>  <COMPOUND>
CC#C[C@]1(O)CC[C@H]2[C@@H]3CCC4=CC(=O)CCC4=C3[C@@H](c3ccc(N(C)C)cc3)C[C@@]21C

>  <TESTED SYSTEM>
Saccharomyces cerevisiae BY4741 SeMeCo community

>  <READOUT NUMBER>
1.66

$$$$
>  <COMPOUND>
CC1(C)S[C@@H]2[C@H](NC(=O)COc3ccccc3)C(=O)N2[C@H]1C(=O)O [Penicillin V potassium salt]

>  <TESTED SYSTEM>
Saccharomyces cerevisiae BY4741 SeMeCo community

>  <READOUT NUMBER>
0.44

$$$$
